This collection of values is drawn from patent US20100004431A1.

Target: T1, CD25 (R&D systems cat. #223-2A/CF) (UniProt P01589 22-213, limits assumed)
T1 construct: Bought soluble protein
T1 sequence (looked up): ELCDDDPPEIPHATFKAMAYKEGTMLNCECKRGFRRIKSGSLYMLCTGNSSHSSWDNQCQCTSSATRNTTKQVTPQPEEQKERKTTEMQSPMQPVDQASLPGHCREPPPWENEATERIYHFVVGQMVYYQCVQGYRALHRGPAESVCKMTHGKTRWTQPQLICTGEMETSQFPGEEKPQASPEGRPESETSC
Assay: Biacore (SPR); antibody captured on Protein A, CD25 injected
readout: Kd (nM)
Numeric answer only, unit nM assumed.

- binder: "anti-CD25 H0L0 (antibody, V domains shown, Chimeric form of the anti-TAC antibody, in IgG1 format; also called chimeric anti-CD25 H0L0; anti-TAC H0L0) VH: QVQLQQSGAELAKPGASVKMSCKASGYTFTSYRMHWVKQRPGQGLEWIGYINPSTGYTEYNQKFKDKATLTADKSSSTAYMQLSSLTFEDSAVYYCARGGGVFDYWGQGTTLTVSS VL: QIVLTQSPAIMSASPGEKVTITCSASSSISYMHWFQQKPGTSPKLWIYTTSNLASGVPARFSGSGSGTSYSLTISRMEAEDAATYYCHQRSTYPLTFGSGTKLELK"
  unitsOfMeasure: "nM"
  Kd: 0.09

Please look at the following binder next.
anti-CD25 H1.4L1 (antibody, V domains shown, Single variant in the anti-CD25 H1L1 background; also called VH K73T single variant) VH: QVQLVQSGAEVKKPGASVKVSCKASGYTFTSYRMHWVRQAPGQGLEWMGYINPSTGYTEYNQKFQGRVTITADTSISTAYMELSRLRSDDTAVYYCARGGGVFDYWGQGTLVTVSS VL: QIVLTQSPATLSLSPGERATLSCRASSSISYMHWFQQKPGQSPQLLIYTTSNLASGVPARFSGSGSGTDYTLTISSLQPEDFAVYYCHQRSTYPLTFGSGTKLEIK yielded Kd of 0.3
